All values here come from the DeepSol protein solubility set.

assay: soluble on expression in E. coli; label from the status in PepcDB or PDB records
value_kind: soluble on expression in E. coli

GSMIRSTLSSWREYLTPITHKSTFLTTGQITPEEFVQAGDYLCHMFPTWKWNEESSDISYRDFLPKNKQFLIIRKVPCDKRAEQCVEVEGPDVIMKGFAEDGDEDDVLEYIGSETEHVQSTPAGGTKDSSIDDIDELIQDMEIKEEDENDDTEEFNAKGGLAKDMAQERYYDLYIAYSTSYRVPKMYIVGFNSNGSPLSPEQMFEDISADYRTKTATIEKLPFYKNSVLSVSIHPCKHANVMKILLDKVRVVRQRRRKELQEEQELDGVGDWEDLQDDIDDSLRVDQYLIVFLKFITSVTPSIQHDYTMEGW	soluble
NVSVLNFGNTPVSFRQDGFLNATAIASHFGKLPKDYLKSEQTQQYISALAENLSVRRKILTEANQIVIVKRGGSEQGTWLHPKLAIHFARWLNPKFAVWCDEQIEILLNGKISDGI	soluble
